Test system: Staphylococcus epidermidis
Assay: Antibacterial activity against methicillin-resistant Staphylococcus epidermidis ATCC 27626
Format: functional
The entries below come with measured MIC values attached.

>  <structure-smiles-string>
CC(C)(C)c1cc(C(C)(C)C)c2[nH]c(C(C)(C)C)c(C[C@H](NC(=O)[C@@H](N)CCCCN)C(=O)N[C@@H](CCCNC(=N)N)C(N)=O)c2c1

>  <subject-of-test>
Staphylococcus epidermidis

>  <MIC, µM>
3.8

$$$$
>  <structure-smiles-string>
CC(C)(C)c1cc(C(C)(C)C)c2[nH]c(C(C)(C)C)c(C[C@H](NC(=O)[C@@H](N)CCCNC(=N)N)C(=O)N[C@@H](CCCNC(=N)N)C(=O)NCc3ccccc3)c2c1

>  <subject-of-test>
Staphylococcus epidermidis

>  <MIC, µM>
1.3

$$$$
>  <structure-smiles-string>
COC(=O)[C@H](CCCNC(=N)N)NC(=O)[C@@H](N)Cc1c(C(C)(C)C)[nH]c2c(C(C)(C)C)cc(C(C)(C)C)cc12

>  <subject-of-test>
Staphylococcus epidermidis

>  <MIC, µM>
4.6

$$$$
>  <structure-smiles-string>
CC(C)(C)c1cc(C(C)(C)C)c2[nH]c(C(C)(C)C)c(C[C@H](N)C(=O)N[C@@H](CCCNC(=N)N)C(=O)NCc3ccccc3)c2c1

>  <subject-of-test>
Staphylococcus epidermidis

>  <MIC, µM>
4

$$$$
>  <structure-smiles-string>
CC(C)(C)c1cc(C(C)(C)C)c2[nH]c(C(C)(C)C)c(C[C@H](N)C(=O)N[C@@H](CCCNC(=N)N)C(N)=O)c2c1

>  <subject-of-test>
Staphylococcus epidermidis

>  <MIC, µM>
14

$$$$
>  <structure-smiles-string>
COC(=O)[C@H](CCCNC(=N)N)NC(=O)[C@@H](Cc1c(C(C)(C)C)[nH]c2c(C(C)(C)C)cc(C(C)(C)C)cc12)NC(=O)[C@@H](N)CCCNC(=N)N

>  <subject-of-test>
Staphylococcus epidermidis

>  <MIC, µM>
3.6

$$$$
>  <structure-smiles-string>
CC(C)(C)c1cc(C(C)(C)C)c2[nH]c(C(C)(C)C)c(C[C@H](NC(=O)[C@@H](N)CCCNC(=N)N)C(=O)N[C@@H](CCCNC(=N)N)C(N)=O)c2c1

>  <subject-of-test>
Staphylococcus epidermidis

>  <MIC, µM>
3.7

$$$$
>  <structure-smiles-string>
COC(=O)[C@H](CCCNC(=N)N)NC(=O)[C@H](N)Cc1c(C(C)(C)C)[nH]c2c(C(C)(C)C)cc(C(C)(C)C)cc12

>  <subject-of-test>
Staphylococcus epidermidis

>  <MIC, µM>
14

$$$$
